Hello, the source for this data is ChEMBL document CHEMBL3044609, in case you need it.

Exercise: for every item that follows, state its recorded LC50.
Test system: Tetranychus urticae
Test details: Acaricidal activity against Tetranychus urticae (two-spotted spider mite) in compound treated snap bean leaves assessed as adult mortality measured after 2 days by leaf disk method
Format: functional
Assay setup: foliar, 48 h

### Prompt Param request: LC50 | system Tetranychus urticae | item Cc1ccc2oc(-c3ccccc3F)nc2c1
### Response 88 µg/mL

### Prompt Param request: LC50 | system Tetranychus urticae | item Fc1c(F)c(F)c(-c2nc3ccccc3s2)c(F)c1F [2-(PERFLUOROPHENYL)BENZO[D]THIAZOLE]
### Response 26 µg/mL

### Prompt Param request: LC50 | system Tetranychus urticae | item Cc1ccc2oc(-c3cccc(F)c3)nc2c1
### Response 383 µg/mL

### Prompt Param request: LC50 | system Tetranychus urticae | item Fc1cc(-c2nc3ccccc3o2)c(F)c(F)c1F
### Response 151 µg/mL

### Prompt Param request: LC50 | system Tetranychus urticae | item Cc1ccc2oc(-c3ccc(F)cc3)nc2c1
### Response > 500 µg/mL

### Prompt Param request: LC50 | system Tetranychus urticae | item Cc1cc(C)c2oc(-c3cc(F)c(F)c(Cl)c3F)nc2c1
### Response < 31 µg/mL

### Prompt Param request: LC50 | system Tetranychus urticae | item Cc1ccc2oc(-c3cc(F)c(F)c(Cl)c3F)nc2c1
### Response 35 µg/mL

### Prompt Param request: LC50 | system Tetranychus urticae | item Cc1ccc2nc(-c3cc(F)c(F)c(F)c3F)sc2c1
### Response 75 µg/mL

### Prompt Param request: LC50 | system Tetranychus urticae | item Fc1cc(-c2nc3ccccc3s2)c(F)c(Cl)c1F
### Response 35 µg/mL

### Prompt Param request: LC50 | system Tetranychus urticae | item Cc1ccc2oc(-c3cc(F)c(F)cc3F)nc2c1
### Response 174 µg/mL

### Prompt Param request: LC50 | system Tetranychus urticae | item Fc1cc(-c2nc3cc(Cl)ccc3o2)c(F)c(Cl)c1F
### Response 37 µg/mL

### Prompt Param request: LC50 | system Tetranychus urticae | item Cc1ccc2nc(-c3cc(F)c(F)c(Cl)c3F)oc2c1
### Response 48 µg/mL

### Prompt Param request: LC50 | system Tetranychus urticae | item Cc1ccc2oc(-c3cc(F)c(F)c(F)c3F)nc2c1
### Response 19 µg/mL

### Prompt Param request: LC50 | system Tetranychus urticae | item Fc1cc(-c2nc3ccc(Br)cc3s2)c(F)c(F)c1F
### Response 93 µg/mL

### Prompt Param request: LC50 | system Tetranychus urticae | item Fc1cc(-c2nc3ccccc3o2)c(F)c(Cl)c1F
### Response 66 µg/mL

### Prompt Param request: LC50 | system Tetranychus urticae | item Fc1cc(-c2nc3cc(Cl)ccc3o2)c(F)c(F)c1F
### Response 100 µg/mL

### Prompt Param request: LC50 | system Tetranychus urticae | item c1ccc(-c2nc3ccccc3s2)cc1 [2-PHENYLBENZO[D]THIAZOLE]
### Response 211 µg/mL

### Prompt Param request: LC50 | system Tetranychus urticae | item Cc1ccc2oc(-c3ccccc3)nc2c1
### Response > 500 µg/mL

### Prompt Param request: LC50 | system Tetranychus urticae | item Fc1cc(-c2nc3ccccc3s2)c(F)c(F)c1F
### Response 102 µg/mL

### Prompt Param request: LC50 | system Tetranychus urticae | item Fc1ccc(-c2nc3ccccc3s2)cc1F
### Response < 125 µg/mL

### Prompt Param request: LC50 | system Tetranychus urticae | item c1ccc(-c2nc3ccccc3o2)cc1 [2-PHENYLBENZO[D]OXAZOLE]
### Response > 500 µg/mL

### Prompt Param request: LC50 | system Tetranychus urticae | item Cc1ccc2nc(-c3cc(F)c(F)c(Cl)c3F)sc2c1
### Response 155 µg/mL
